pIC50: −log10 of the molar value.
Let's go through some recorded pIC50 values for UniProt:Q12884 together.
Sequence (Q12884 whole entry): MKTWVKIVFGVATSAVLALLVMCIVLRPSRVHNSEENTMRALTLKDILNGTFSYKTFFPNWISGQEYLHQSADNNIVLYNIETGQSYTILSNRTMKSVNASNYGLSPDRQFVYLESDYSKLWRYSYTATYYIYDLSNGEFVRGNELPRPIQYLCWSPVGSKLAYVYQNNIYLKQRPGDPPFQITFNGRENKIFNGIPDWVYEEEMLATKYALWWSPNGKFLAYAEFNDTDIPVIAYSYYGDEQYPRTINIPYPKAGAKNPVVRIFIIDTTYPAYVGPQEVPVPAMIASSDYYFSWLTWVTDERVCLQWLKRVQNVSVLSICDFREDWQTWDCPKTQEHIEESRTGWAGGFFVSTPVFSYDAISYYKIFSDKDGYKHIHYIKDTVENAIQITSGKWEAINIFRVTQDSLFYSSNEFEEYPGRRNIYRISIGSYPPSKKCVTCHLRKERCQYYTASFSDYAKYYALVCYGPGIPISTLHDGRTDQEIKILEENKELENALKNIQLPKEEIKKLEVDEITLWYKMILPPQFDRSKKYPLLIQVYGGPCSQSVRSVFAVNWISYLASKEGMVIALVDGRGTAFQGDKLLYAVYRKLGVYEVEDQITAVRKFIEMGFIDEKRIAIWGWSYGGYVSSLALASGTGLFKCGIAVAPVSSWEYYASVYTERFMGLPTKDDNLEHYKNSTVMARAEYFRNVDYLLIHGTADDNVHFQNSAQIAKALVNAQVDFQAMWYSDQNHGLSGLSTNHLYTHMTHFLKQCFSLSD

C=CCCC(=O)N[C@H]1CSCc2cc(CSCCNC(=O)CN3CCN(CC(=O)O)CCN(CC(=O)O)CCN(CC(=O)O)CC3)cc(c2)CSC[C@@H](C(=O)O)NC(=O)[C@H](Cc2ccccc2)NC(=O)[C@H](CCC(N)=O)NC(=O)[C@H]([C@@H](C)O)NC(=O)[C@@H]2CCCN2C(=O)[C@@H]2CCCN2C1=O [3BP-3914] ... 7.10 to 8.00

Fill in pIC50 for each of the 3 molecules listed.
1. C[C@@H](O)[C@@H]1NC(=O)[C@@H]2CCCN2C(=O)[C@@H]2CCCN2C(=O)[C@@H](NC(=O)CCCN)CSCc2cccc(c2)CSC[C@@H](C(N)=O)NC(=O)[C@H](Cc2ccccc2)NC(=O)[C@H](CCC(N)=O)NC1=O [3BP-3761]
2. CCCC[C@H](NC(=O)CCOCCOCCOCCOCCOCCOCCNC(=O)C(CNCCN)CNCCN)C(=O)N[C@H]1CSCc2cccc(c2)CSCC(C(=O)O)NC(=O)[C@H](Cc2ccccc2)NC(=O)[C@H](CCC(N)=O)NC(=O)[C@H]([C@@H](C)O)NC(=O)[C@@H]2CCCN2C(=O)[C@@H]2CCCN2C1=O (stereo partly shown) [3BP-4551]
3. CCCC[C@H](NC(=O)CCC(=O)NCCCOCCOCCOCCCNC(=O)CN1CCN(C(=O)C(CNCCN)CNCCN)CC1)C(=O)N[C@H]1CSCc2cncc(c2)CSC[C@@H](C(=O)NCCC(=O)O)NC(=O)[C@H](Cc2ccccc2)NC(=O)[C@H](CCC(N)=O)NC(=O)[C@H]([C@@H](C)O)NC(=O)[C@@H]2CCCN2C(=O)[C@@H]2CCCN2C1=O [3BP-4961]

Response:
1: < 6.00; 2: 7.10 to 8.00; 3: > 8.00

---

- test-method-notes: in vivo
- reported-conditions: swiss nude, mouse, tumor, iv
Numbered stars: 1 amine (or outer) side, 2 acyl side, 3 side chain; on linkers, the order of the positions; unused ones are H or OH. Bridge positions count the residues as written; N and C are the ends. Square brackets hold non-standard residues; d marks the D form. Peptide text beside a SMILES is read from it. * marks the point of attachment. ξ: configuration not given here. X1 = NCCNCC(CNCCN)C(=O)N1CCN(CC(=O)NCCCOCCOCCOCCCN*)CC1; Pyridine(3,5-bisCH2) = c1ncc(C[*:2])cc1C[*:1]; mXylylene = c1cc(C[*:1])cc(C[*:2])c1; Suc = O=C(CCC(=O)[*:2])[*:1]; Nle = CCCC[C@H](N)C(=O)O; ξC = NC(CS)C(=O)O
experimental-endpoint: tissue uptake at 3 h (%ID/g)
Numbers only, in %ID/g.

Below, 2 compounds whose answers are already recorded.
CCCC[C@H](NC(=O)CCC(=O)NCCCOCCOCCOCCCNC(=O)CN1CCN(C(=O)C(CNCCN)CNCCN)CC1)C(=O)N[C@H]1CSCc2cncc(c2)CSCC(C(=O)O)NC(=O)[C@H](Cc2ccccc2)NC(=O)[C@H](CCC(=O)O)NC(=O)[C@H]([C@@H](C)O)NC(=O)[C@@H]2CCCN2C(=O)[C@@H]2CCCN2C1=O (stereo partly drawn) [3BP-4775] ({X1-Suc}-[Nle]CPPTEF[ξC]-OH; linker 2-8 via Pyridine(3,5-bisCH2)) ... 6.28
CCCCNC(=O)N[C@H]1CSCc2cc(CSCCNC(=O)C(CNCCN)CNCCN)cc(c2)CSC[C@@H](C(=O)O)NC(=O)[C@H](Cc2ccccc2)NC(=O)[C@H](CCC(N)=O)NC(=O)[C@H]([C@@H](C)O)NC(=O)[C@@H]2CCCN2C(=O)[C@@H]2CCCN2C1=O ... 6.85

As a next step, examine the compound that follows.
Request: Using the record for CCCC[C@H](NC(=O)CCC(=O)NCCCOCCOCCOCCCNC(=O)CN1CCN(C(=O)C(CNCCN)CNCCN)CC1)C(=O)N[C@H]1CSCc2cccc(c2)CSC[C@@H](C(=O)O)NC(=O)[C@H](Cc2ccccc2)NC(=O)[C@H](CCC(=O)O)NC(=O)[C@H]([C@@H](C)O)NC(=O)[C@@H]2CCCN2C(=O)[C@@H]2CCCN2C1=O [3BP-4782] ({X1-Suc}-[Nle]CPPTEFC-OH; linker 2-8 via mXylylene) , report its tissue uptake at 3 h.
Response: 6.77

---

- test-method-notes: in vivo
- reported-conditions: swiss nude, mouse, kidneys, iv
Numbered stars: 1 amine (or outer) side, 2 acyl side, 3 side chain; on linkers, the order of the positions; unused ones are H or OH. Bridge positions count the residues as written; N and C are the ends. Square brackets hold non-standard residues; d marks the D form. Peptide text beside a SMILES is read from it. * marks the point of attachment. ξ: configuration not given here. X1 = NCCNCC(CNCCN)C(=O)N1CCN(CC(=O)NCCCOCCOCCOCCCN*)CC1; Pyridine(3,5-bisCH2) = c1ncc(C[*:2])cc1C[*:1]; mXylylene = c1cc(C[*:1])cc(C[*:2])c1; PEG6 = NCCOCCOCCOCCOCCOCCOCCC(=O)O; Suc = O=C(CCC(=O)[*:2])[*:1]; Nle = CCCC[C@H](N)C(=O)O; X2 = NCCNCC(CNCCN)C(=O)*; ξC = NC(CS)C(=O)O
The following ranges of tissue uptake at 6 h define the classes used here: bottom bin = under 0.8 %ID/g, middle bin = from 0.8 %ID/g up to 2 %ID/g, top bin = 2 %ID/g and over

CCCCNC(=O)N[C@H]1CSCc2cc(cc(CN3CCN(C(=O)C(CNCCN)CNCCN)CC3)c2)CSC[C@@H](C(=O)O)NC(=O)[C@H](Cc2ccccc2)NC(=O)[C@H](CCC(N)=O)NC(=O)[C@H]([C@@H](C)O)NC(=O)[C@@H]2CCCN2C(=O)[C@@H]2CCCN2C1=O ... top bin
CCCC[C@H](NC(=O)CCC(=O)NCCCOCCOCCOCCCNC(=O)C(CNCCN)CNCCN)C(=O)N[C@H]1CSCc2cncc(c2)CSCC(C(=O)O)NC(=O)[C@H](Cc2ccccc2)NC(=O)[C@H](CCC(N)=O)NC(=O)[C@H]([C@@H](C)O)NC(=O)[C@@H]2CCCN2C(=O)[C@@H]2CCCN2C1=O (stereo partly drawn) ... bottom bin
CCCC[C@H](NC(=O)CCC(=O)NCCCOCCOCCOCCCNC(=O)CN1CCN(C(=O)C(CNCCN)CNCCN)CC1)C(=O)N[C@H]1CSCc2cncc(c2)CSC[C@@H](C(=O)NCCC(=O)O)NC(=O)[C@H](Cc2ccccc2)NC(=O)[C@H](CCC(N)=O)NC(=O)[C@H]([C@@H](C)O)NC(=O)[C@@H]2CCCN2C(=O)[C@@H]2CCCN2C1=O ... bottom bin
CCCC[C@H](NC(=O)CCC(=O)NCCCOCCOCCOCCCNC(=O)CCOCCOCCOCCOCCOCCOCCNC(=O)C(CNCCN)CNCCN)C(=O)N[C@H]1CSCc2cccc(c2)CSCC(C(=O)O)NC(=O)[C@H](Cc2ccccc2)NC(=O)[C@H](CCC(N)=O)NC(=O)[C@H]([C@@H](C)O)NC(=O)[C@@H]2CCCN2C(=O)[C@@H]2CCCN2C1=O (stereo partly drawn) ... middle bin
CCCC[C@H](NC(=O)CCC(=O)NCCCOCCOCCOCCCNC(=O)CN1CCN(C(=O)C(CNCCN)CNCCN)CC1)C(=O)N[C@H]1CSCc2cccc(c2)CSC[C@@H](C(=O)NCCC(=O)O)NC(=O)[C@H](Cc2ccccc2)NC(=O)[C@H](CCC(N)=O)NC(=O)[C@H]([C@@H](C)O)NC(=O)[C@@H]2CCCN2C(=O)[C@@H]2CCCN2C1=O ... middle bin
CCCC[C@H](NC(=O)CCC(=O)NCCCOCCOCCOCCCNC(=O)CN1CCN(C(=O)C(CNCCN)CNCCN)CC1)C(=O)N[C@H]1CSCc2cccc(c2)CSC[C@@H](C(=O)N[C@@H](CC(=O)O)C(=O)O)NC(=O)[C@H](Cc2ccccc2)NC(=O)[C@H](CCC(=O)O)NC(=O)[C@H]([C@@H](C)O)NC(=O)[C@@H]2CCCN2C(=O)[C@@H]2CCCN2C1=O [3BP-4785] ({X1-Suc}-[Nle]CPPTEFCD-OH; linker 2-8 via mXylylene) ... middle bin
CCCCNC(=O)N[C@H]1CSCc2cc(CSCCNC(=O)C(CNCCN)CNCCN)cc(c2)CSC[C@@H](C(=O)O)NC(=O)[C@H](Cc2ccccc2)NC(=O)[C@H](CCC(N)=O)NC(=O)[C@H]([C@@H](C)O)NC(=O)[C@@H]2CCCN2C(=O)[C@@H]2CCCN2C1=O ... middle bin
CCCC[C@H](NC(=O)CCC(=O)NCCCOCCOCCOCCCNC(=O)CN1CCN(C(=O)C(CNCCN)CNCCN)CC1)C(=O)N[C@H]1CSCc2cccc(c2)CSCC(C(=O)O)NC(=O)[C@H](Cc2ccccc2)NC(=O)[C@H](CCC(N)=O)NC(=O)[C@H]([C@@H](C)O)NC(=O)[C@@H]2CCCN2C(=O)[C@@H]2CCCN2C1=O (stereo partly drawn) ... middle bin

Request: Category of CCCC[C@H](NC(=O)CCC(=O)NCCCOCCOCCOCCCNC(=O)CN1CCN(C(=O)C(CNCCN)CNCCN)CC1)C(=O)N[C@H]1CSCc2cccc(c2)CSC[C@@H](C(=O)O)NC(=O)[C@H](Cc2ccccc2)NC(=O)[C@H](CCC(=O)O)NC(=O)[C@H]([C@@H](C)O)NC(=O)[C@@H]2CCCN2C(=O)[C@@H]2CCCN2C1=O [3BP-4782] ({X1-Suc}-[Nle]CPPTEFC-OH; linker 2-8 via mXylylene) , please.
Response: top bin

Request: Categorize the following entry: CCCC[C@H](NC(=O)CCOCCOCCOCCOCCOCCOCCNC(=O)C(CNCCN)CNCCN)C(=O)N[C@H]1CSCc2cccc(c2)CSCC(C(=O)O)NC(=O)[C@H](Cc2ccccc2)NC(=O)[C@H](CCC(N)=O)NC(=O)[C@H]([C@@H](C)O)NC(=O)[C@@H]2CCCN2C(=O)[C@@H]2CCCN2C1=O (stereo partly drawn)
Response: bottom bin

Request: Lab note: sort CCCC[C@H](NC(=O)CCOCCOCCOCCOCCOCCOCCNC(=O)C(CNCCN)CNCCN)C(=O)N[C@H]1CSCc2cncc(c2)CSCC(C(=O)O)NC(=O)[C@H](Cc2ccccc2)NC(=O)[C@H](CCC(=O)O)NC(=O)[C@H]([C@@H](C)O)NC(=O)[C@@H]2CCCN2C(=O)[C@@H]2CCCN2C1=O (stereo partly drawn) [3BP-4773] ({X2-PEG6}-[Nle]CPPTEF[ξC]-OH; linker 2-8 via Pyridine(3,5-bisCH2)) into the matching tissue uptake at 6 h band.
Response: top bin

Request: Please let me know in which category the item CCCC[C@H](NC(=O)CCOCCOCCOCCOCCOCCOCCNC(=O)C(CNCCN)CNCCN)C(=O)N[C@H]1CSCc2cncc(c2)CSCC(C(=O)O)NC(=O)[C@H](Cc2ccccc2)NC(=O)[C@H](CCC(N)=O)NC(=O)[C@H]([C@@H](C)O)NC(=O)[C@@H]2CCCN2C(=O)[C@@H]2CCCN2C1=O (stereo partly drawn) belongs.
Response: bottom bin

Taken from patent US20230212549A1.
